Item-by-item account of MIC-fold improvement vs. vancomycin
- Tested on: E. faecalis VRE 53
- ASSAY_COMMENT: MIC, broth microdilution, vancomycin-resistant E. faecalis VRE 53 (VanA)
- Format: cell-based, Enterococcus faecalis
- CONDITION_NOTES: VRE 53; ratio of MIC of vancomycin and MIC of analogue

Example compounds with recorded MIC-fold improvement vs. vancomycin:
[[record]]
compound = "CNC(CC(C)C)C(=O)NC1C(=O)NC(CC(N)=O)C(=O)NC2C(=O)NC3C(=O)NC(C(=O)NC(C(=O)NCC(=O)Nc4ccc(-c5cnnn5C5OC(COC(C)=O)C(OC(C)=O)C(OC(C)=O)C5OC(C)=O)cc4)c4cc(O)cc(O)c4-c4cc3ccc4O)C(O)c3ccc(c(Cl)c3)Oc3cc2cc(c3OC2OC(CO)C(O)C(O)C2OC2CC(C)(N)C(O)C(C)O2)Oc2ccc(cc2Cl)C1O (stereo not drawn)"
measurement = 8

[[record]]
compound = "CN[C@H](CC(C)C)C(=O)N[C@H]1C(=O)N[C@@H](CC(N)=O)C(=O)N[C@H]2C(=O)N[C@H]3C(=O)N[C@H](C(=O)N[C@H](C(=O)NCC(=O)Nc4cccc(F)c4)c4cc(O)cc(O)c4-c4cc3ccc4O)[C@H](O)c3ccc(c(Cl)c3)Oc3cc2cc(c3O[C@@H]2O[C@H](CO)[C@@H](O)[C@H](O)[C@H]2O[C@H]2C[C@](C)(N)[C@H](O)[C@H](C)O2)Oc2ccc(cc2Cl)[C@H]1O"
measurement = 32


Switching to the query record.
Recorded MIC-fold improvement vs. vancomycin for CCCCCCCc1ccc(C(=O)NCCCNC(=O)C2NC(=O)C3NC(=O)C(NC(=O)C4NC(=O)C(CC(N)=O)NC(=O)C(NC(=O)C(CC(C)C)NC)C(O)c5ccc(c(Cl)c5)Oc5cc4cc(c5OC4OC(CO)C(O)C(O)C4OC4CC(C)(N)C(O)C(C)O4)Oc4ccc(cc4Cl)C3O)c3ccc(O)c(c3)-c3c(O)cc(O)cc32)cc1 (stereo not drawn) with E. faecalis VRE 53, please?
128
